Tested on: MCF-7 breast cancer cell line
Test: PrestoBlue cytotoxicity assay against MCF-7 breast cancer cells
Type: cell-based
Settings: Homo sapiens, MCF7; MCF-7, PrestoBlue, 24 h incubation, run twice and averaged; read-out: IC50 for MCF-7
List of IC50 values.
Report the value in µM with no unit label.

Look over these answered cases.
{"compound": "COC1CC[C@@](C)(C2CC[C@]3(C)C2CCC2[C@@]4(C)CCC(=O)C(C)(C)C4CC[C@]23C)O1 (stereo partly shown) [Compound 5]", "unit_text": "µM", "IC50": 133}
{"compound": "CC(=O)O[C@@H]1CC[C@@]2(C)C(CC[C@]3(C)C2CCC2C([C@]4(C)CCC(=O)O4)CC[C@]23C)C1(C)C (stereo partly drawn) [Compound 6, 3α-acetyl-cabraleahydroxy lactone]", "unit_text": "µM", "IC50": 274}
{"compound": "C=C(CCC=C(C)C)C1CC[C@]2(C)C1CC[C@@H]1[C@@]3(C)CCC(=O)C(C)(C)C3CC[C@]12C (stereo partly shown) [Compound 2, dammaradienone]", "unit_text": "µM", "IC50": 132}
{"compound": "CC(C)(O)[C@@H]1CC[C@@](C)(C2CC[C@]3(C)C2CCC2[C@@]4(C)CC[C@@H](O)C(C)(C)C4CC[C@]23C)O1 (stereo partly drawn) [Compound 1, 20S,24S-epoxy-3α,25-dihydroxy-dammarane]", "unit_text": "µM", "IC50": 142}

Now turn to the next compound.
Which IC50 is reported for this compound? CC(=O)O[C@@H]1CC[C@@]2(C)C(CC[C@]3(C)C2CCC2C([C@]4(C)CC[C@@H](C(C)(C)O)O4)CC[C@]23C)C1(C)C (stereo partly shown) [Compound 7]
195

---

Test system: MCF-7 breast cancer cell line
Test: PrestoBlue cytotoxicity assay against MCF-7 breast cancer cells
Format: cell-based
Conditions: MCF-7, PrestoBlue, 24 h incubation, run twice and averaged; read-out: IC50 for MCF-7
value_kind: IC50 (µM)
Report the value in µM with no unit label.

Which IC50 is reported for this compound? N.N.[Cl][Pt][Cl] [Cisplatin, cisplatin, reference compound]
176

---

List of IC50 values.
System: B16-F10 melanoma cell line
Test: PrestoBlue cytotoxicity assay against B16-F10 melanoma cells
Type: cell-based
Details: Mus musculus, 24 h incubation, run twice and averaged, read-out: IC50 for B16-F10 (μg/mL)

Which IC50 is reported for this molecule? CC(=O)O[C@@H]1CC[C@@]2(C)C(CC[C@]3(C)C2CCC2C([C@]4(C)CC[C@@H](C(C)(C)O)O4)CC[C@]23C)C1(C)C (stereo partly drawn) [Compound 7]
79.4 µg/mL

Now consider CC(C)=CCC[C@](C)(O)C1CC[C@]2(C)C1CC[C@@H]1[C@@]3(C)CCC(=O)C(C)(C)C3CC[C@]12C (stereo partly drawn) [Compound 3, 20S-hydroxy-dammar-24-en-3-on] and answer again.
49.1 µg/mL

Now consider C=C(C)[C@@H]1CC[C@]2(C)[C@H](CC[C@@H]3[C@@H]([C@]4(C)CC[C@@H](C(C)(C)O)O4)CC[C@]32C)[C@@]1(C)CCC(=O)O [Compound 4, eichlerianic acid] and answer again.
275 µg/mL

The measurements presented in this section are drawn from paper PMC10343279.
